# Subject Of Test: SIRPα-His protein (UniProt P78324)
# Method Notes: competition ELISA, SIRPα-His binding to coated CD47-Fc
Would you mind telling me the reported IC50 of each entry?
Field format: number, assumed pM, no unit text.

What value of IC50 has been reported for the following binder? HSP210-02-hz22 (antibody, V domains shown) VH: QVQLVQSGAEVKKPGASVKVSCKASGFNFEDTYMHWVRQAPGQGLEWMGRIDPADGDTKYNPKFQDRVTMTVDTSTNTAYMELSSLRSEDTAVYYCVRGNYVNWGQGTTVTVSS VL: EIVLTQSPGTLSLSPGERATLSCRASSSVSSSYLYWYQQKPGQAPRLLIYSTSNLASGIPDRFSGSGSGTDYTLTISRLEPEDAAVYFCHQWYSYPRTFGGGTKVEIK
92

Could you do the same for HSP210-03-hz42 (antibody, V domains shown) VH: QVQLVQSGAEVKKPGSSVKVSCKASGYTFTSNYIHWVRQAPGQGLEWMGWIYPGEGDTNYNQKFNGRVTLTADKSTSTAYMELSSLRSEDTAVYYCAINYGGIWFAYWGQGTLVTVSS VL: DIQMTQSPSSLSASVGDRVTITCQASQDIGNKLIWFQQKPGKAPKLLIHYVTNLPGGVPSRFSGSRSGSDYTLTISSLQPEDFATYYCLQYKQNPLTFGQGTKLEIK , please?
130
